Just for reference, the NIST ThermoML archive (doi:10.1016/j.jct.2015.07.012) is where these values come from.

// reported speed of sound for each item listed
Conditions: 313.15 K; 101.33 kPa; Liquid; Sing-around technique in a fixed-path interferometer
value_kind: speed of sound (m/s)

| compound | value_kind | meas_value |
| --- | --- | --- |
| CCCCCCC(=O)[O-].C[NH2+]C1CCCCC1 [N-methylcyclohexylammonium heptanoate] | speed of sound | 1404.5 |
| CCCCCC(=O)[O-].C[NH2+]C1CCCCC1 [N-methylcyclohexylammonium hexanoate] | speed of sound | 1410.3 |
| CCCCCCCC(=O)[O-].C[NH2+]C1CCCCC1 [N-methylcyclohexylammonium octanoate] | speed of sound | 1399.5 |
| CCCCC(=O)[O-].C[NH2+]C1CCCCC1 [N-methylcyclohexylammonium pentanoate] | speed of sound | 1420.1 |

----------
// reported speed of sound for each item listed
Conditions: 343.15 K; 101.33 kPa; Liquid; Sing-around technique in a fixed-path interferometer

| compound | unit_symbol | speed of sound |
| --- | --- | --- |
| CCCCCCC(=O)[O-].C[NH2+]C1CCCCC1 [N-methylcyclohexylammonium heptanoate] | m/s | 1299.1 |
| CCCCC(=O)[O-].C[NH2+]C1CCCCC1 [N-methylcyclohexylammonium pentanoate] | m/s | 1313.5 |
| CCCCCCCC(=O)[O-].C[NH2+]C1CCCCC1 [N-methylcyclohexylammonium octanoate] | m/s | 1295.4 |
| CCCCCC(=O)[O-].C[NH2+]C1CCCCC1 [N-methylcyclohexylammonium hexanoate] | m/s | 1305.2 |

----------
// reported speed of sound for each item listed
Details: 338.15 K; 101.33 kPa; Liquid; Sing-around technique in a fixed-path interferometer
± gives the expanded uncertainty stated by the source.

| compound | speed of sound |
| --- | --- |
| CCCCCC(=O)[O-].C[NH2+]C1CCCCC1 [N-methylcyclohexylammonium hexanoate] | 1322.6 ± 8.6 m/s |
| CCCCC(=O)[O-].C[NH2+]C1CCCCC1 [N-methylcyclohexylammonium pentanoate] | 1331.1 ± 8.6 m/s |
| CCCCCCCC(=O)[O-].C[NH2+]C1CCCCC1 [N-methylcyclohexylammonium octanoate] | 1312.4 ± 8.6 m/s |
| CCCCCCC(=O)[O-].C[NH2+]C1CCCCC1 [N-methylcyclohexylammonium heptanoate] | 1316.1 ± 8.6 m/s |

----------
// reported mass density for each item listed
Conditions: 338.15 K; 101.33 kPa; Liquid; Vibrating tube method
± gives the expanded uncertainty stated by the source.

| compound | mass density |
| --- | --- |
| CCCCC(=O)[O-].C[NH2+]C1CCCCC1 [N-methylcyclohexylammonium pentanoate] | 932.44 ± 1.8 kg/m3 |
| CCCCCCCC(=O)[O-].C[NH2+]C1CCCCC1 [N-methylcyclohexylammonium octanoate] | 906.82 ± 1.8 kg/m3 |
| CCCCCCC(=O)[O-].C[NH2+]C1CCCCC1 [N-methylcyclohexylammonium heptanoate] | 911.8 ± 1.8 kg/m3 |
| CCCCCC(=O)[O-].C[NH2+]C1CCCCC1 [N-methylcyclohexylammonium hexanoate] | 922.46 ± 1.8 kg/m3 |

----------
Test: refractive index (Na D-line) (dimensionless)
Conditions: 303.15 K; 101.33 kPa; Liquid; Standard Abbe refractometry
Numbers after ± are expanded uncertainties.

| compound | refractive index |
| --- | --- |
| CCCCCCCC(=O)[O-].C[NH2+]C1CCCCC1 [N-methylcyclohexylammonium octanoate] | 1.464 ± 0.0012 |
| CCCCCC(=O)[O-].C[NH2+]C1CCCCC1 [N-methylcyclohexylammonium hexanoate] | 1.4631 ± 0.0012 |
| CCCCC(=O)[O-].C[NH2+]C1CCCCC1 [N-methylcyclohexylammonium pentanoate] | 1.4627 ± 0.0012 |
| CCCCCCC(=O)[O-].C[NH2+]C1CCCCC1 [N-methylcyclohexylammonium heptanoate] | 1.4636 ± 0.0012 |

----------
// reported mass density for each item listed
Details: 318.15 K; 101.33 kPa; Liquid; Vibrating tube method

| compound | mass density, kg/m3 |
| --- | --- |
| CCCCCCCC(=O)[O-].C[NH2+]C1CCCCC1 [N-methylcyclohexylammonium octanoate] | 921.21 |
| CCCCCCC(=O)[O-].C[NH2+]C1CCCCC1 [N-methylcyclohexylammonium heptanoate] | 927.26 |
| CCCCC(=O)[O-].C[NH2+]C1CCCCC1 [N-methylcyclohexylammonium pentanoate] | 947.63 |
| CCCCCC(=O)[O-].C[NH2+]C1CCCCC1 [N-methylcyclohexylammonium hexanoate] | 937.32 |

----------
Details: 298.15 K; 101.33 kPa; Liquid; Sing-around technique in a fixed-path interferometer
// reported speed of sound for each item listed

| molecule | unit_symbol | speed of sound |
| --- | --- | --- |
| CCCCCCCC(=O)[O-].C[NH2+]C1CCCCC1 [N-methylcyclohexylammonium octanoate] | m/s | 1453.1 |
| CCCCC(=O)[O-].C[NH2+]C1CCCCC1 [N-methylcyclohexylammonium pentanoate] | m/s | 1475.7 |
| CCCCCCC(=O)[O-].C[NH2+]C1CCCCC1 [N-methylcyclohexylammonium heptanoate] | m/s | 1458.5 |
| CCCCCC(=O)[O-].C[NH2+]C1CCCCC1 [N-methylcyclohexylammonium hexanoate] | m/s | 1464.9 |

----------
Conditions: 343.15 K; 101.33 kPa; Liquid; Vibrating tube method
Numbers after ± are expanded uncertainties.
// reported mass density for each item listed

| compound | mass density |
| --- | --- |
| CCCCCC(=O)[O-].C[NH2+]C1CCCCC1 [N-methylcyclohexylammonium hexanoate] | 918.66 ± 1.8 kg/m3 |
| CCCCCCCC(=O)[O-].C[NH2+]C1CCCCC1 [N-methylcyclohexylammonium octanoate] | 903.15 ± 1.8 kg/m3 |
| CCCCC(=O)[O-].C[NH2+]C1CCCCC1 [N-methylcyclohexylammonium pentanoate] | 928.54 ± 1.8 kg/m3 |
| CCCCCCC(=O)[O-].C[NH2+]C1CCCCC1 [N-methylcyclohexylammonium heptanoate] | 907.85 ± 1.8 kg/m3 |

----------
Conditions: 293.15 K; 101.33 kPa; Liquid; Sing-around technique in a fixed-path interferometer
// reported speed of sound for each item listed
value_kind: speed of sound (m/s)

| compound | value_kind | meas_value |
| --- | --- | --- |
| CCCCCCCC(=O)[O-].C[NH2+]C1CCCCC1 [N-methylcyclohexylammonium octanoate] | speed of sound | 1471.6 |
| CCCCCC(=O)[O-].C[NH2+]C1CCCCC1 [N-methylcyclohexylammonium hexanoate] | speed of sound | 1484 |
| CCCCC(=O)[O-].C[NH2+]C1CCCCC1 [N-methylcyclohexylammonium pentanoate] | speed of sound | 1495.3 |
| CCCCCCC(=O)[O-].C[NH2+]C1CCCCC1 [N-methylcyclohexylammonium heptanoate] | speed of sound | 1478.3 |

----------
Details: 303.15 K; 101.33 kPa; Liquid; Vibrating tube method

| molecule | mass density [kg/m3] |
| --- | --- |
| CCCCCCCC(=O)[O-].C[NH2+]C1CCCCC1 [N-methylcyclohexylammonium octanoate] | 931.73 |
| CCCCCCC(=O)[O-].C[NH2+]C1CCCCC1 [N-methylcyclohexylammonium heptanoate] | 938.51 |
| CCCCC(=O)[O-].C[NH2+]C1CCCCC1 [N-methylcyclohexylammonium pentanoate] | 958.63 |
| CCCCCC(=O)[O-].C[NH2+]C1CCCCC1 [N-methylcyclohexylammonium hexanoate] | 948.13 |

----------
// reported mass density for each item listed
Details: 333.15 K; 101.33 kPa; Liquid; Vibrating tube method
value_kind: mass density (kg/m3)

| compound | meas_value |
| --- | --- |
| CCCCCCCC(=O)[O-].C[NH2+]C1CCCCC1 [N-methylcyclohexylammonium octanoate] | 910.46 |
| CCCCCCC(=O)[O-].C[NH2+]C1CCCCC1 [N-methylcyclohexylammonium heptanoate] | 915.71 |
| CCCCCC(=O)[O-].C[NH2+]C1CCCCC1 [N-methylcyclohexylammonium hexanoate] | 926.23 |
| CCCCC(=O)[O-].C[NH2+]C1CCCCC1 [N-methylcyclohexylammonium pentanoate] | 936.29 |

----------
// reported speed of sound for each item listed
Details: 303.15 K; 101.33 kPa; Liquid; Sing-around technique in a fixed-path interferometer
value_kind: speed of sound (m/s)

| compound | unit_symbol | meas_value |
| --- | --- | --- |
| CCCCC(=O)[O-].C[NH2+]C1CCCCC1 [N-methylcyclohexylammonium pentanoate] | m/s | 1456.7 |
| CCCCCC(=O)[O-].C[NH2+]C1CCCCC1 [N-methylcyclohexylammonium hexanoate] | m/s | 1446.4 |
| CCCCCCC(=O)[O-].C[NH2+]C1CCCCC1 [N-methylcyclohexylammonium heptanoate] | m/s | 1440.2 |
| CCCCCCCC(=O)[O-].C[NH2+]C1CCCCC1 [N-methylcyclohexylammonium octanoate] | m/s | 1435 |
